Kinact/Kl listing for selected compounds.
Molecular target: Human Polθ polymerase domain (aa1820-2590) (Homo sapiens, UniProt O75417)
Construct: Human Polθ polymerase domain (aa1820-2590) was expressed in E. coli; made in house; host or cells: E. coli
Sequence (O75417 1820-2590): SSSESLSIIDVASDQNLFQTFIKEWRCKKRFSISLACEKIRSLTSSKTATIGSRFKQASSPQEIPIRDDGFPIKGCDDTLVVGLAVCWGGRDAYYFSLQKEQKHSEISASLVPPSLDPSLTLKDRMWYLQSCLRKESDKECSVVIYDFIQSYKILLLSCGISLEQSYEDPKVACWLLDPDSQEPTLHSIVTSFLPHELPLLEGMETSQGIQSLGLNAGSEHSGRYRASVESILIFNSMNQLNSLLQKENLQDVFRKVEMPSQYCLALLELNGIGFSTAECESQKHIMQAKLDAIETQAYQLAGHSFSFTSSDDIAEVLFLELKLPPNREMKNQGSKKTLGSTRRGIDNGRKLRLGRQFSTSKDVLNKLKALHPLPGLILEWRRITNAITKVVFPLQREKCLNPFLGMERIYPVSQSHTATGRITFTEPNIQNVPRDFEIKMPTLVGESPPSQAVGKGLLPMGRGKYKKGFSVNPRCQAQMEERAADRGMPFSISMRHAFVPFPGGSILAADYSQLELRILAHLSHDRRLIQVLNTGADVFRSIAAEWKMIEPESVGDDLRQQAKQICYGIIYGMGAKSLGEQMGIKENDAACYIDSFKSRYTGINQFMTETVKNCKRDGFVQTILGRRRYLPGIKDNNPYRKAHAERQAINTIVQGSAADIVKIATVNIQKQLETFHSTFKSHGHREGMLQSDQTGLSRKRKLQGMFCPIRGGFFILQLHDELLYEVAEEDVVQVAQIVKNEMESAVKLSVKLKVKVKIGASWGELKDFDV
Test: Polθ Polymerase Domain Kinact/KI Assay (PicoGreen)
Type: biochemical
Conditions: 0.8 nM Polθ, 100 nM DNA substrate, kobs vs [I] fit for 2-step covalent inhibitor
Please state the figure in M⁻¹ s⁻¹; there is no need to write the unit.

Compound: C=C(CN(C)C)C(=O)N1CC(C(F)CCCN2C[C@H]3CC(=O)N(c4cc(C(F)(F)F)cc(C)n4)[C@@H]3C(=O)N(C)c3cccc(Cl)c32)C1 (stereo partly drawn) [Example 300]
Readout unit: M⁻¹ s⁻¹
Reported result: 3.93e+06

Value of measured Kinact/Kl for the entry C=CC(=O)N1CCN2C(=O)[C@H](C)N(CCN3C[C@H]4CC(=O)N(c5cc(C(F)(F)F)cc(C)n5)[C@@H]4C(=O)N(C)c4cccc(F)c43)C[C@@H]2C1 (single isomer, unassigned) [Example 108] : 2.35e+06

Value of measured Kinact/Kl for the entry C=CC(=O)N1Cc2nc(CN3C[C@H]4CC(=O)N(c5cc(C(F)(F)F)cc(C)n5)[C@@H]4C(=O)N(C)c4cccc(Cl)c43)cn2CC1C(F)F (mixture of isomers) [Example 243b] : 580000

---

Biological target: Human Polθ polymerase domain (aa1820-2590) (Homo sapiens, UniProt O75417)
Construct: Human Polθ polymerase domain (aa1820-2590) was expressed in E. coli; made in house; host or cells: E. coli
Assay: Polθ Polymerase Domain Kinact/KI Assay (PicoGreen)
Assay type: biochemical
Details: 0.8 nM Polθ, 100 nM DNA substrate, kobs vs [I] fit for 2-step covalent inhibitor
Measure name: Kinact/Kl (M⁻¹ s⁻¹)
Please state the figure in M⁻¹ s⁻¹; there is no need to write the unit.

Example cases with answers are listed next.
Compound: C=CC(=O)N1CC(N2CCN(C(=O)CN3C[C@H]4CC(=O)N(c5cc(C(F)(F)F)cc(C)n5)[C@@H]4C(=O)N(C)c4cccc(Cl)c43)CC2)C1 [Example 75]
Kinact/Kl [M⁻¹ s⁻¹]: 1.32e+06
--
Compound: C=CC(=O)N1CC(F)(COCCN2C[C@H]3CC(=O)N(c4cc(C(F)(F)F)cc(C)n4)[C@@H]3C(=O)N(C)c3cccc(Cl)c32)C1 [Example 285]
Kinact/Kl [M⁻¹ s⁻¹]: 1.98e+06

Value of measured Kinact/Kl for the entry C=CC(=O)N1CC2(CN(CCN3C[C@H]4CC(=O)N(c5cc(C(F)(F)F)cc(C)n5)[C@@H]4C(=O)N(C)c4cccc(F)c43)CCN2C(C)=O)C1 [Example 36] : 1.47e+06

Value of measured Kinact/Kl for the entry C=CC(=O)N1CCn2cc(CN3C[C@H]4CC(=O)N(c5cc(C(F)(F)F)cc(C)n5)[C@@H]4C(=O)N(C)c4cccc(C)c43)nc2C1 [Example 203] : 4.32e+06

Value of measured Kinact/Kl for the entry C#CC(=O)N1CC(F)(COCCN2C[C@H]3CC(=O)N(c4cc(C(F)(F)F)cc(C)n4)[C@@H]3C(=O)N(C)c3cccc(Cl)c32)C1 [Example 303] : 1.8e+06

Value of measured Kinact/Kl for the entry C=CC(=O)N1CC2(CN(CCN3C[C@H]4CC(=O)N(c5cc(C(F)(F)F)cc(C)n5)[C@@H]4C(=O)N(C)c4cccc(F)c43)C[C@@H](COC)N2)C1 [Example 6] : 540000

Value of measured Kinact/Kl for the entry C=CC(=O)N1Cc2cc(CN3C[C@H]4CC(=O)N(c5cc(C(F)(F)F)cc(C)n5)[C@@H]4C(=O)N(C)c4cccc(Cl)c43)ccc2C1CC#N (single isomer, unassigned) [Example 287b] : 1.19e+06

Value of measured Kinact/Kl for the entry C=CC(=O)N1CC(N2CCN(CCN3C[C@H]4CC(=O)N(c5cc(C(F)(F)F)cc(C)n5)[C@@H]4C(=O)N(C)c4cccc(Cl)c43)CC2)C1 [Example 12] : 1.71e+06

Value of measured Kinact/Kl for the entry C=CC(=O)N1CC(N2CCN(CCN3C[C@H]4CC(=O)N(c5cc(C(F)(F)F)cc(C)n5)[C@@H]4C(=O)N(C)c4cc(F)cc(C5CC5)c43)CC2)C1 [Example 19] : 350000

Value of measured Kinact/Kl for the entry C=CC(=O)N1CCC12CCN(CCN1C[C@H]3CC(=O)N(c4cc(C(F)(F)F)cc(C)n4)[C@@H]3C(=O)N(C)c3cccc(F)c31)C2 (single isomer, unassigned) [Example 21b] : 140000

Value of measured Kinact/Kl for the entry C=CC(=O)N1CC(N2CCN(C(C)CN3C[C@H]4CC(=O)N(c5cc(C(F)(F)F)cc(C)n5)[C@@H]4C(=O)N(C)c4cccc(F)c43)CC2)C1 (some centres unmarked) [Example 97] : 1.18e+06

---

Biological target: Human Polθ polymerase domain (aa1820-2590) (Homo sapiens)
Construct: Human Polθ polymerase domain (aa1820-2590) was expressed in E. coli; made in house; host or cells: E. coli
Assay: Polθ Polymerase Domain Kinact/KI Assay (PicoGreen)
Format: biochemical
Conditions: 0.8 nM Polθ, 100 nM DNA substrate, kobs vs [I] fit for 2-step covalent inhibitor
Experimental: Polθ Polymerase Domain Kinact/KI Assay A PicoGreen assay was used to measure the Kinact and KI values of covalent compounds that inhibit the activity of Polθ in vitro. Human Polθ polymerase domain (aa1820-2590) was expressed in E. coli, purified, aliquoted and stored at −80° C. until required. Polθ substrate was generated from a 1.2:1 mix of DNA II Short to DNA II Long to give a final concentration of […] substrate in annealing buffer (20 mM Tris pH 7.5, 50 mM NaCl). […]
Kinact/Kl listing for selected compounds.
Please state the figure in M⁻¹ s⁻¹; there is no need to write the unit.

Example cases with answers are listed next.
Compound: C=CC(=O)N1C[C@H](F)[C@@H](n2cc(CN3C[C@H]4CC(=O)N(c5cc(C(F)(F)F)cc(C)n5)[C@@H]4C(=O)N(C)c4cccc(C)c43)cn2)C1 (single isomer, unassigned) [Example 325a]
Readout unit: M⁻¹ s⁻¹
Kinact/Kl: 1.25e+06

Compound: C=CC(=O)N1Cc2nc(CN3C[C@H]4CC(=O)N(c5cc(C(F)(F)F)cc(C)n5)[C@@H]4C(=O)N(C)c4cccc(C)c43)ccc2[C@H]1CC#N (racemic) [Example 319b]
Readout unit: M⁻¹ s⁻¹
Kinact/Kl: 1.66e+06

Compound: C=CC(=O)N1Cc2nc(CN3C[C@H]4CC(=O)N(c5cc(C(F)(F)F)cc(C)n5)[C@@H]4C(=O)N(C)c4cccc(Cl)c43)n(CC)c2C1 [Example 279]
Readout unit: M⁻¹ s⁻¹
Kinact/Kl: 900000

Compound: C=CC(=O)N1Cc2nc(CN3C[C@H]4CC(=O)N(c5cc(C(F)(F)F)cc(C)n5)[C@@H]4C(=O)N(C)c4cccc(C)c43)sc2C1 [Example 315]
Readout unit: M⁻¹ s⁻¹
Kinact/Kl: 1.79e+06

Compound: Cc1cc(C(F)(F)F)cc(N2C(=O)C[C@@H]3CN(Cc4ccc(NC(=O)C5=CCCN(C)C5)cc4)c4c(C)cccc4N(C)C(=O)[C@H]32)n1 [Example 211]
Readout unit: M⁻¹ s⁻¹
Kinact/Kl: 1.57e+06

Value of measured Kinact/Kl for the entry C=CC(=O)N1CC2(CN(CCN3C[C@H]4CC(=O)N(c5cc(C(F)(F)F)cc(C)n5)[C@@H]4C(=O)N(C)c4cccc(Cl)c43)CC3COCCN32)C1 (single isomer, unassigned) [Example 26a] : 690000

Value of measured Kinact/Kl for the entry C=C(CO)C(=O)N1CCC(CCCN2C[C@H]3CC(=O)N(c4cc(C(F)(F)F)cc(C)n4)[C@@H]3C(=O)N(C)c3cccc(Cl)c32)CC1 [Example 168] : 1.97e+06

Value of measured Kinact/Kl for the entry C=CC(=O)N1CC(c2nnc(CN3C[C@H]4CC(=O)N(c5cc(C(F)(F)F)cc(C)n5)[C@@H]4C(=O)N(C)c4cccc(F)c43)o2)C1 [Example 103] : 1.6e+06

Value of measured Kinact/Kl for the entry C=C(CN(C)C)C(=O)N1CC(c2ccc(CN3C[C@H]4CC(=O)N(c5cc(C(F)(F)F)cc(C)n5)[C@@H]4C(=O)N(C)c4cccc(F)c43)cc2)C1 [Example 151] : 2.04e+06

Value of measured Kinact/Kl for the entry C=CC(=O)N1Cc2cc(CN3C[C@H]4CC(=O)N(c5cc(C(F)(F)F)cc(C)n5)[C@@H]4C(=O)N(C)c4cccc(Cl)c43)nn2CC1C (single isomer, unassigned) [Example 294a] : 1.61e+06

Value of measured Kinact/Kl for the entry C=C(CN(C)C)C(=O)N1CCN(C(=O)CCN2C[C@H]3CC(=O)N(c4cc(C(F)(F)F)cc(C)n4)[C@@H]3C(=O)N(C)c3cccc(Cl)c32)CC1 [Example 86] : 3.49e+06

Hey, just so you know, these numbers are from patent US20250230165A1.
